# System: HepG2
# test summary: cytotoxicity call (relative viability < 0.9)
# test parameters: 10 µM
Hit rate of the full screen: of about 39,000 compounds, about 3,300 (8.5%) were called active. Many of the other results were omitted from the sample, so actives are more common in it than they were.
readout kind: cytotoxicity call

Here are 5 compounds together with their reported answers.
item_smiles=COCCCNC(=O)[C@@]1(Cc2ccccc2N=[N+]=[N-])N=C(c2ccc(OCCCO)cc2)O[C@H]1c1ccccc1N=[N+]=[N-] tested_on=HepG2 reported_result=inactive
item_smiles=NC1(c2cccc(Cl)c2)CC1 tested_on=HepG2 reported_result=inactive
item_smiles=O=C1CC(=O)N(Cc2ccccc2)C(=O)N1 tested_on=HepG2 reported_result=inactive
item_smiles=CC(C)c1csc(CCN)n1 tested_on=HepG2 reported_result=inactive
item_smiles=OCc1ccco1 tested_on=HepG2 reported_result=inactive

Item CC1(C)CCNC1=O has what recorded cytotoxicity call?
inactive

Same question for N#[N+]CC(=O)CC[C@H](N)C(=O)O please.
inactive

###

# System: HepG2
# test summary: cytotoxicity call (relative viability < 0.9)
# test parameters: 10 µM
In all, about 39,000 compounds went through this assay and about 3,300 (8.5%) were called active. The sample holds actives, similar compounds and a random draw of the others, so the mix is not that of the screen.
API: response.call in label 1 for active, label 0 for inactive

Known results for compounds:
compound=O=C(O)C=CC(=O)O.c1ccc2nc(N3CCNCC3)ccc2c1 group_label="label 1"
compound=O=c1[nH]oc2c1CCNC2 group_label="label 0"
compound=c1nc(N2CCN3CCC[C@H]3C2)c2[nH]cnc2n1 group_label="label 0"
compound=CC(C)[C@H]1CNC(=O)C1 group_label="label 0"
compound=[N-]=[N+]=NCc1ccccc1C[C@@]1(C(=O)N2CCCCC2)N=C(c2ccc(OCCCO)cc2)O[C@@H]1c1ccccc1N=[N+]=[N-] group_label="label 0"

Continue with the compound presented below.
// param item: O=C1N[C@@H]2C(=C[C@H](O)[C@@H](O)[C@H]2O)c2cc3c(c(O)c21)OCO3 ; yields the recorded call
label 1

###

# System: HepG2
# test summary: cytotoxicity call (relative viability < 0.9)
# test parameters: 10 µM
Hit rate of the full screen: of about 39,000 compounds, about 3,300 (8.5%) were called active. This excerpt belongs to a sample that is enriched for actives.
readout kind: cytotoxicity call

Solved entries:
compound=Nc1ccc(Cl)cc1Cl readout_kind="cytotoxicity call" reported_result=inactive
compound=C1CO[C@H]2[C@@H](C1)CNC[C@H]2N1CCOCC1 readout_kind="cytotoxicity call" reported_result=inactive
compound=CC(C)[C@@H](Br)C(=O)NC(N)=O readout_kind="cytotoxicity call" reported_result=inactive
compound="CC12CCC3C(CCC45OC4C(O)=C(C#N)CC35C)C1CCC2O (stereo not given)" readout_kind="cytotoxicity call" reported_result=inactive
compound=O=[N+]([O-])c1cc(O)c(O)c([N+](=O)[O-])c1 readout_kind="cytotoxicity call" reported_result=inactive

Which cytotoxicity call value belongs to COS(C)(=O)=O ?
inactive

How about O=C(O)C(Cl)Cl.[NaH] ?
inactive

Also CC(COc1ccc(Oc2ccccc2)cc1)Oc1ccccn1 (stereo not given) ?
inactive

And the next one, Cl.NCC(CC(=O)O)c1ccc(Cl)cc1 (racemic) ?
inactive

Next: CN1CCc2cc3c(cc2C1O)OCO3.Cl (stereo not given)
inactive

Here is the next compound: C[C@H](CO)N1C[C@H](C)[C@@H](CN(C)C(=O)Oc2cccc3ccccc23)OCc2cnnn2CCCC1=O
inactive

// repeat for C=CCN=C=S and report
active
